# Tested on: intestinal alkaline phosphatase [Mus musculus]
# procedure details: mouse intestinal phosphatase enzyme activation – biochemical, luminescence, single concentration, confirmation (AID 434970)
# experimental conditions: purified mouse IAP, CDP-Star luminescence, 30 min, at 10 µM; stronger effect = lower value
In all, about 11,000 compounds went through this assay and about 310 (2.8%) were called active. Only a selection was taken, and actives are over-represented in it overall.
Below, each entry is listed with its recorded activity change, negative = activation.
Dear colleague, please return just the value in %, with no unit written.

molecule	activity change, negative = activation / %
Oc1ccccc1C1=NOC(O)(C(F)F)C1 (stereo not given)	7.2
CCc1nnc(NC(=O)C2CCCN2C(=O)Nc2ccccc2OC)s1 (stereo not given)	-12.2
COc1ccc(CNC(=O)C(C)n2ccc3cc(S(=O)(=O)N4CCCCCC4)ccc32)cc1 (stereo not given)	-90.9

**Query** Value lookup for activity change, negative = activation; key = COC(=O)c1ccc(S(=O)(=O)N2CCCCCC2)cc1
**Result** 12.6

**Query** And COC(=O)[C@@]1(C)[C@H]2C(=O)N(Cc3ccccc3)C(=O)[C@H]2[C@H]2CN=C(SC)N21 ?
**Result** -9.05

* * *

# Tested on: intestinal alkaline phosphatase [Mus musculus]
# procedure details: mouse intestinal phosphatase enzyme activation – biochemical, luminescence, single concentration, confirmation (AID 434970)
# experimental conditions: purified mouse IAP, CDP-Star luminescence, 30 min, at 10 µM; stronger effect = lower value
About 310 (2.8%) of roughly 11,000 compounds were called active. The full list was thinned out, with actives kept by preference.
Reported activity change, negative = activation values are given for each entry in this list.
All answers are understood in %, so give the number only.

compound	recorded endpoint	measured value
COc1ccc(CCNC(=O)NC2CCCCC2)cc1	activity change, negative = activation	2.4
CCN(CC)CCNC(=O)Cn1nc(-c2ccccc2)c2ccccc2c1=O	activity change, negative = activation	4.6
COc1ccc(C2NCCO2)cc1OC (stereo unspecified)	activity change, negative = activation	4.65
COC(=O)c1ccccc1NC(=O)CCS(=O)(=O)c1ccc(Br)s1	activity change, negative = activation	-5
CC(C)c1ccc(NC(=S)NC2CCCCCC2)cc1	activity change, negative = activation	-38.9

**Query** Please report the recorded activity change, negative = activation for CN(CC(=O)Nc1cccc(Cl)c1)S(=O)(=O)c1ccc2[nH]c(=O)oc2c1 .
**Result** 74.1

* * *

# Tested on: intestinal alkaline phosphatase [Mus musculus]
# procedure details: mouse intestinal phosphatase enzyme activation – biochemical, luminescence, single concentration, confirmation (AID 434970)
# experimental conditions: purified mouse IAP, CDP-Star luminescence, 30 min, at 10 µM; measured here: IAP activation factor, stronger effect = higher value
Hit rate of the full screen: of about 11,000 compounds, about 310 (2.8%) were called active. The full list was thinned out, with actives kept by preference.
recorded endpoint: activation factor
// return a plain number; no unit text

Worked examples, 3 molecules total:
molecule	activation factor
Cc1noc(C)c1S(=O)(=O)Nc1ccc(C(=O)NC2CCCCCC2)cc1	1.07
CC(=O)Nc1ccc(C(=O)OCC(=O)NC(=O)NC2CCCCC2)cc1	0.997
O=C(NCc1ccc(Cl)cc1Cl)C1CCN(S(=O)(=O)c2ccc3c(c2)OCCCO3)CC1	1.48

**Query** Fill in the blank: the reported activation factor of O=C(Nc1ccc(Br)cc1)NC1CCCCCCC1 is ____.
**Result** 2.74

**Query** And for Fc1ccccc1Cn1nnc2c(NCc3ccccn3)ncnc21 ?
**Result** 0.966

**Query** And the next one, CC(C)=CCC/C(C)=C/CNC(=O)C[C@H]1C[C@H](C(=O)N(C(C)C)C(C)C)[C@@]2(C)c3[nH]c4ccc(Cl)cc4c3CCN2C1=O ?
**Result** 1.25

**Query** Do the same for Cn1nnnc1SCC(=O)N1CCN(c2ccc(Cl)cc2)CC1 please
**Result** 1.06

**Query** What about this molecule? CCN(CC)C(=O)[C@H]1CC(CC(=O)NC/C=C(\C)CCC=C(C)C)C(=O)N2CCc3c([nH]c4ccc(OC)cc34)[C@]12C (some centres undefined)
**Result** 1.25

**Query** Moving on to the next molecule: Cc1cc(NC(=O)Cn2c(=O)c3c(ncn3CC(C)C)n(Cc3ccccc3)c2=O)no1
**Result** 1.09

* * *

# Test system: intestinal alkaline phosphatase [Mus musculus]
# procedure details: mouse intestinal phosphatase enzyme activation – biochemical, luminescence, single concentration, confirmation (AID 434970)
# experimental conditions: purified mouse IAP, CDP-Star luminescence, 30 min, at 10 µM; stronger effect = lower value
In all, about 11,000 compounds went through this assay and about 310 (2.8%) were called active. The full list was thinned out, with actives kept by preference.
recorded endpoint: activity change, negative = activation (%)
Just the number in %, nothing appended.

molecule	activity change, negative = activation [%]
CCOC(=O)N1CCN(C(=O)Cn2c(C)cc3ccccc3c2=O)CC1	-11.8
Cn1c(C(=O)NCc2ccccc2)cc2oc3ccccc3c21	-14.4
C=CCNC(=O)c1nc2ccccc2s1	8
O=C(NNc1cccc(Cl)n1)Nc1ccccc1	3.55
Cc1ccc(N/C(N)=N/c2nc(C)cc(N3CCCCC3)n2)c(C)c1	-322

**Query** Sample COc1ccc(C2=NOC(Cn3nc(-c4ccccc4)cc3C(=O)NCc3cccs3)C2)cc1 (configuration not stated) — what was its activity change, negative = activation?
**Result** -81.5

**Query** Lookup COc1cccc(N/C(C)=C/C(=O)c2ccc(Br)cc2)c1
**Result** -0.05

* * *

Entries and their activation factor
# Test system: intestinal alkaline phosphatase [Mus musculus]
# procedure details: mouse intestinal phosphatase enzyme activation – biochemical, luminescence, single concentration, confirmation (AID 434970)
# experimental conditions: purified mouse IAP, CDP-Star luminescence, 30 min, at 10 µM; measured here: IAP activation factor, stronger effect = higher value
The whole screen tested about 11,000 compounds, of which about 310 (2.8%) were called active. What follows is part of a selection rich in actives, with near analogues and random picks from the rest.
Write no unit; give the number alone.

compound	measured value
FC(F)Oc1ccc(NC(=S)NCc2ccccc2)cc1Cl	1.34
Cc1oc(-c2ccccc2F)nc1CN1CCC(C(=O)NC2CCCc3ccccc32)CC1 (stereo unspecified)	1.12

**Query** Query the reported activation factor for intestinal alkaline phosphatase [Mus musculus]; item: Cc1ccc(C)c(CN2CCC(CNC(=O)Nc3ccc(C)c(C)c3)CC2)c1
**Result** 2.21

**Query** Repeat with C1CN(c2nc3nonc3n3nnnc23)CCO1
**Result** 0.972

**Query** Next entry: CC(=O)c1ccc(NC(=O)CCn2c(=O)oc3ccccc32)cc1
**Result** 1.03

**Query** Repeat with Cc1ccc(SCCNC(=S)Nc2ccc(C)c(C)c2)cc1
**Result** 1.46

* * *

activation factor overview
# Test system: intestinal alkaline phosphatase [Mus musculus]
# procedure details: mouse intestinal phosphatase enzyme activation – biochemical, luminescence, single concentration, confirmation (AID 434970)
# experimental conditions: purified mouse IAP, CDP-Star luminescence, 30 min, at 10 µM; measured here: IAP activation factor, stronger effect = higher value
In all, about 11,000 compounds went through this assay and about 310 (2.8%) were called active. For the sample, actives were picked, then their nearest neighbours and some compounds at random.
Number, no unit, nothing else.

compound	tested target	recorded endpoint	measured value
CC(=O)c1cccc(NC(=O)Nc2ccc(C(=O)N3CCOCC3)cc2)c1	intestinal alkaline phosphatase [Mus musculus]	activation factor	1.06

**Query** Query (compound): Cc1ccc(S(=O)(=O)N(C)C[C@H]2Oc3c(NC(=O)Nc4cccc5ccccc45)cccc3C(=O)N([C@@H](C)CO)C[C@@H]2C)cc1 ; field requested: activation factor
**Result** 3.14

**Query** Here is the next compound: C#CCOCCOCCOCCNc1nc(N2CCN(C(=O)CCCCCCCCCCNC(=O)Cn3cc(C[C@@H](C)O)nn3)CC2)nc(N2CCN(C(=O)CCCCCCCCCCNC(=O)[C@H](CCCN=C(N)N)n3cc(C[C@@H](C)CC)nn3)CC2)n1
**Result** 5.68

**Query** Entry O=C(Nc1ccc(Cl)cc1)Nc1cc(S(=O)(=O)N2CCOCC2)ccc1N1CCCC1 please
**Result** 2.15

**Query** For O=C(O)Cn1c(SCc2cccc3ccccc23)nc2ccccc21 then?
**Result** 1.09

**Query** How about CC[C@H](C)Cc1cn([C@@H](CCCCNC(=O)OC(C)(C)C)C(=O)NCCCCCCCCCCC(=O)N2CCN(C(=O)OC(C)(C)C)CC2)nn1 ?
**Result** 1.57

**Query** Try this compound next: COc1ccc(NC(=O)N2CCCC2C(=O)Nc2ccc(C)c(Cl)c2)cc1 (stereo unspecified)
**Result** 1.12

**Query** How about CN(Cc1ccccc1)C(=O)Cn1cccc1C(=O)c1ccccc1 ?
**Result** 1.13

**Query** Also CCOC(=O)c1ccc(NC(=O)NCCc2ccccc2OC)cc1 , if possible.
**Result** 2.01

**Query** Cool, now O=C(OCn1nnc2ccccc2c1=O)C1CCN(S(=O)(=O)c2cccs2)CC1
**Result** 0.919

**Query** Moving on to the next compound: CC[C@]12c3[nH]c4cc(CCC(=O)N(C)C)ccc4c3CCN1C(=O)[C@@H](CC(=O)NC/C=C(\C)CCC=C(C)C)C[C@@H]2C(=O)N1CCN(C(=O)C2CC2)CC1
**Result** 1.09

**Query** Try this compound too: COC(=O)[C@@]1(C)[C@H]2C(=O)N(Cc3ccccc3)C(=O)[C@H]2[C@H]2CN=C(SC)N21
**Result** 1.09

**Query** What do you get for Cc1cc(Cl)cc(C)c1OCC(=O)O ?
**Result** 1.06

**Query** O=C(Nc1ccc(Cl)c(Cl)c1)Nc1cc(C(=O)N2CCOCC2)ccc1N1CCCCC1 ?
**Result** 2.67

**Query** Consider next the compound O=S(=O)(c1ccc(F)cc1)N1CCN(CC(O)COCc2cccs2)CC1 (stereo unspecified) in the same way.
**Result** 0.928

**Query** Field entry: Cn1nc(OCc2ccccc2)ccc1=O
**Result** 0.947

**Query** One more compound: COCCN(C(=O)C(F)(F)F)C(C(=O)NC1CCCCC1)c1ccco1 (stereo unspecified)
**Result** 0.978

**Query** // next record COC(=O)CC1C(=O)NCCN1C(=O)Nc1ccccc1 (stereo unspecified)
**Result** 0.938

**Query** Field entry: Cc1ccc(CNC(=O)c2ccc(NC(=O)CCS(=O)(=O)c3cccs3)cc2)cc1
**Result** 0.978
